Molecular target: HLA-B*18:01
Assay: IEDB peptide-MHC binding, purified MHC/competitive/radioactivity; filed as Kd, often an IC50 or EC50 that approximates it; bounds were set here for any values at or beyond the usual limits of such assays
Settings: source organism: SARS coronavirus Tor2
quantity.measured: Kd

Below, each entry is followed by its recorded Kd result.
KDCVMYASAL : ≥ 70.5 µM
SEYKGPVTDV : ≥ 70.5 µM
REFLTRNPAW : ≥ 33.4 µM
AEAAVKPLL : ≥ 77.5 µM
QELGHEDLM : ≥ 31.8 µM

Then this sequence:
*Q* # get_value(readout='Kd', item= AEGSRGGSQA )
*A* ≥ 70.5 µM

---

// reported log10 of Kd per item
Target: HLA-A*30:02
Assay: IEDB peptide-MHC binding, purified MHC/competitive/radioactivity; filed as Kd, often an IC50 or EC50 that approximates it; bounds were set here for any values at or beyond the usual limits of such assays
Settings: source organism: SARS coronavirus Tor2
Field: value | Transform: log10 | Quantity: Kd | Unit: µM

Below, each entry is followed by its recorded log10 of Kd result.
LMANLAPHL : 1.08
LYKLMGHFSW : 1.23

*Q* # get_value(readout='log10 of Kd', item= AYNVVNKGHF )
*A* 1.05

---

Target: HLA-A*33:01
Assay: IEDB peptide-MHC binding, purified MHC/competitive/radioactivity; filed as Kd, often an IC50 or EC50 that approximates it; bounds were set here for any values at or beyond the usual limits of such assays
Conditions: source organism: Vaccinia virus WR
pKd: −log10 of the molar value.
quantity.measured: pKd

Below, each entry is followed by its recorded pKd result.
LTDTEYRAR : ≤ 4.11
RIVTVTTKDY : ≤ 4.15

*Q* # get_value(readout='pKd', item= DVRDKRRKY )
*A* ≤ 4.11

*Q* # get_value(readout='pKd', item= NLEMIDERKY )
*A* ≤ 4.15

*Q* # get_value(readout='pKd', item= QSVLCVKKFY )
*A* ≤ 4.61

*Q* # get_value(readout='pKd', item= LSFSNTIQSY )
*A* ≤ 4.15

*Q* # get_value(readout='pKd', item= AQQFANVISK )
*A* ≤ 4.15

*Q* # get_value(readout='pKd', item= VSDFRDYQSY )
*A* ≤ 4.15

*Q* # get_value(readout='pKd', item= DVHPGEPVVK )
*A* ≤ 4.15

*Q* # get_value(readout='pKd', item= TFKIDAVRY )
*A* ≤ 4.11

*Q* # get_value(readout='pKd', item= LIHDNIMYTY )
*A* ≤ 4.49

*Q* # get_value(readout='pKd', item= YIRRNMINK )
*A* ≤ 4.67

*Q* # get_value(readout='pKd', item= PLFHGGEPIK )
*A* ≤ 4.15

*Q* # get_value(readout='pKd', item= FIRIIRPDY )
*A* ≤ 4.61

*Q* # get_value(readout='pKd', item= EILRNYLRLY )
*A* 6.91

---

Molecular target: HLA-A*11:01
Experiment: IEDB peptide-MHC binding, purified MHC/competitive/radioactivity; filed as Kd, often an IC50 or EC50 that approximates it; bounds were set here for any values at or beyond the usual limits of such assays
Details: source organism: Vaccinia virus WR
quantity.measured: Kd (nM)
Supply the numeric figure in nM, leaving out any unit text.

Below, each entry is followed by its recorded Kd result.
TLILSNKLLY : 1010
SSIDVDKRTK : 0.841
RTRLYDYFTR : 991
VMNIERQDYR : 4140
ELGIAIFNNR : 1470
QSVLCVKKFY : 13200
VTDLENRLKK : 14.5
ITKEIKNRDK : 18400
LILAEYIRHR : 738
RSTIFDIVSK : 1.97

*Q* # get_value(readout='Kd', item= KIKQDVRDK )
*A* 19800
